- tested_on: Melanocortin receptor 4 (Homo sapiens)
- Sequence (P32245 whole entry): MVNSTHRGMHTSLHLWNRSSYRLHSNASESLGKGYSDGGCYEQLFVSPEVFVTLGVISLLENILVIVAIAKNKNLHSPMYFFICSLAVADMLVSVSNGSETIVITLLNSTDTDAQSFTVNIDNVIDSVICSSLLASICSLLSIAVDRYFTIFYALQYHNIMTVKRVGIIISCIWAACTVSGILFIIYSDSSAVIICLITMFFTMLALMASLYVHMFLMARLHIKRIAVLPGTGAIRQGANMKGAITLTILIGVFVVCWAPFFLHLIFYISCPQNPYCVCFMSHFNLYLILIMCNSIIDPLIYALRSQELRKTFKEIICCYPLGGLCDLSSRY
- measurement_protocol: Agonist activity at human MC4R expressed in low doxycyclin-treated HEK293 cell membranes assessed as increase in cAMP production after 45 mins by HTRF method
- Format: functional, cell-based
For each of the molecules below, state its Activity.
API: value field is a number in %; no unit string.

In plain terms, CC[C@H](C)[C@@H]1NC(=O)[C@@H]2CCCN2C(=O)[C@@H]2CCCN2C(=O)[C@H]([C@@H](C)CC)NC(=O)[C@H](CO)NC(=O)[C@H](C)NC(=O)[C@H]([C@H](C)O)NC(=O)[C@@H]2CSSC[C@H](NC1=O)C(=O)N[C@@H](Cc1cnc[nH]1)C(=O)N[C@H](Cc1ccccc1)C(=O)N[C@@H](CCCNC(=N)N)C(=O)N[C@@H](Cc1c[nH]c3ccccc13)C(=O)N[C@@H](CCCNC(=N)N)C(=O)N2 has a documented Activity of 100

In plain terms, CC[C@H](C)[C@@H]1NC(=O)[C@@H]2CCCN2C(=O)[C@@H]2CCCN2C(=O)[C@H]([C@@H](C)CC)NC(=O)[C@H](CO)NC(=O)[C@H](C)NC(=O)[C@H]([C@H](C)O)NC(=O)[C@@H]2CSSC[C@H](NC1=O)C(=O)N[C@@H](Cc1cnc[nH]1)C(=O)N[C@H](Cc1ccccc1)C(=O)N[C@@H](CCCNC(=N)N)C(=O)N(C)[C@@H](Cc1c[nH]c3ccccc13)C(=O)N[C@@H](CCCNC(=N)N)C(=O)N2 has a documented Activity of 100

In plain terms, CC[C@H](C)[C@@H]1NC(=O)[C@@H]2CCCN2C(=O)[C@H](Cc2c[nH]c3ccccc23)NC(=O)[C@H](CCCNC(=N)N)N(C)C(=O)[C@@H](Cc2ccccc2)NC(=O)[C@H](Cc2cnc[nH]2)N(C)C(=O)[C@H]([C@@H](C)O)NC(=O)[C@@H]2CSSC[C@H](NC1=O)C(=O)N[C@@H](Cc1ccccc1)C(=O)N1CCC[C@H]1C(=O)N[C@@H](CC(=O)O)C(=O)NCC(=O)N[C@@H](CCCNC(=N)N)C(=O)N2 has a documented Activity of 100
